Origin of values: patent US4321381A

# Test system: spontaneously hypertensive male rats, strain MHS
# experiment-notes: Anti-hypertensive activity in the spontaneously hypertensive rat (MHS): blood pressure and heart rate at the tail
# Assay type: in vivo
# condition-info: 5 mg/kg os, first day, 5 hr after dose
# Protocol: 1. Spontaneously Hypertensive Rat (MHS) Four spontaneously hypertensive male rats, strain MHS, weight 250 to 300 g for each group were used. The animals were treated for four consecutive days. […]
Exercise: state measured Change in HR, 5 hr after dose, first day for each of the compounds provided.

Please review the entries below; each comes with its answer.
For CN1C[C@H](CC(C#N)C(=O)NCc2ccccc2)C[C@@H]2c3cccc4[nH]cc(c34)C[C@H]21 (stereo partly drawn) , what is its reported Change in HR, 5 hr after dose, first day?
+10 b/min

May I ask what Change in HR, 5 hr after dose, first day has been recorded for CN1C[C@H](CC(C#N)C(N)=O)C[C@@H]2c3cccc4[nH]c(Br)c(c34)C[C@H]21 (stereo partly drawn) ?
+13 b/min

# Change in HR, 5 hr after dose, first day lookup, item NNc1nncc2ccccc12 [Hydralazine, hydralazine, reference compound]
+12 b/min

Which Change in HR, 5 hr after dose, first day is reported for this compound? CN1C[C@H](CC(C#N)C(N)=O)C[C@@H]2c3cccc4[nH]cc(c34)C[C@H]21 (stereo partly drawn)
+35 b/min

Which Change in HR, 5 hr after dose, first day value belongs to CCNC(=O)C(C#N)C[C@@H]1C[C@@H]2c3cccc4[nH]cc(c34)C[C@H]2N(C)C1 (stereo partly drawn) ?
+5 b/min

Next, consider the following compound.
So what does the record say about Change in HR, 5 hr after dose, first day for CN1C[C@H](CC(C#N)C(=O)N2CCCC2)C[C@@H]2c3cccc4[nH]cc(c34)C[C@H]21 (stereo partly drawn) ?
+13 b/min

---

# Test system: normotensive rats
# experiment-notes: Blood pressure and heart rate in the conscious normotensive rat (NR)
# Format: in vivo
# condition-info: 5 mg/kg os, 30'
Each entry gets Not satisfied if its Change in Blood Pressure after Treatment, 30' stays under -20 mm Hg, and Satisfied if its Change in Blood Pressure after Treatment, 30' is -20 mm Hg or above.

Please review the following examples before continuing.
Answer whether Change in Blood Pressure after Treatment, 30' of NNc1nncc2ccccc12 [Hydralazine, hydralazine, reference compound] is greater than or equal to -20 mm Hg.
Satisfied

Decide: is the reported value of Change in Blood Pressure after Treatment, 30' for CN1C[C@H](CC(C#N)C(=O)NCc2ccccc2)C[C@@H]2c3cccc4[nH]cc(c34)C[C@H]21 (stereo partly drawn) equal to or greater than -20 mm Hg?
Not satisfied

Does Change in Blood Pressure after Treatment, 30' meet or surpass -20 mm Hg for CCNC(=O)C(C#N)C[C@@H]1C[C@@H]2c3cccc4[nH]cc(c34)C[C@H]2N(C)C1 (stereo partly drawn) ?
Satisfied

Has CN1C[C@H](CC(C#N)C(N)=O)C[C@@H]2c3cccc4[nH]cc(c34)C[C@H]21 (stereo partly drawn) a recorded Change in Blood Pressure after Treatment, 30' greater than or equal to -20 mm Hg?
Not satisfied

Does CN1C[C@H](CC(C#N)C(=O)N2CCCC2)C[C@@H]2c3cccc4[nH]cc(c34)C[C@H]21 (stereo partly drawn) have a reported Change in Blood Pressure after Treatment, 30' of at least -20 mm Hg?
Satisfied

Please find the next compound below.
# check: Change in Blood Pressure after Treatment, 30' of CN1C[C@H](CC(C#N)C(N)=O)C[C@@H]2c3cccc4[nH]c(Br)c(c34)C[C@H]21 (stereo partly drawn) is greater than or equal to -20 mm Hg
Satisfied
